study-system: KRas-mediated phosphorylation of ERK in A549 cells (Homo sapiens, UniProt P01116, G12S)
Construct: pERK HTRF read-out
Sequence (P01116 1-188 isoform P01116-2 G12S): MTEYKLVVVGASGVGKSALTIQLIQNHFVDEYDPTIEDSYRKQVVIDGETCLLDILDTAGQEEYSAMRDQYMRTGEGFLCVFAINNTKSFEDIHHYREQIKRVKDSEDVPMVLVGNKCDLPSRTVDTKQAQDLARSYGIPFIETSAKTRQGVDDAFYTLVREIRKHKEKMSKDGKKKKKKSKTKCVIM
experimental-details: Inhibition of KRas-mediated phosphorylation of ERK (HTRF), A549 cells
Type: cell-based
study-conditions: HTRF pERK, 3 h incubation
observable: IC50 (nM)
Give bare numbers, in nM.

Some compounds with known IC50 results, for comparison:
{"columns": ["compound", "study-system", "IC50, nM"],
 "data": [
  ["CCc1c(F)ccc2cc(O)cc(-c3ncc4c(N5CC6CC(C(=O)N(C)C(C)=O)C6C5)nc(OC[C@@]56CCCN5C[C@H](F)C6)nc4c3F)c12 (some centres unmarked)", "KRas-mediated phosphorylation of ERK in A549 cells (Homo sapiens, UniProt P01116, G12S)", 549],
  ["CCc1c(F)ccc2cc(O)cc(-c3ncc4c(N5C[C@@H]6[C@H](C5)[C@H]6C(=O)n5ccc(C)n5)nc(OC[C@@]56CCCN5C[C@H](F)C6)nc4c3F)c12", "KRas-mediated phosphorylation of ERK in A549 cells (Homo sapiens, UniProt P01116, G12S)", 7840],
  ["CCc1c(F)ccc2cc(O)cc(-c3ncc4c(N5C[C@H]6C[C@H](C(=O)n7ccc(C)n7)[C@H]6C5)nc(OC[C@@]56CCCN5C[C@H](F)C6)nc4c3F)c12", "KRas-mediated phosphorylation of ERK in A549 cells (Homo sapiens, UniProt P01116, G12S)", 717]
]}

We now examine a further compound.
query: Report IC50 for Cc1ccn(C(=O)C2CCCCN(c3nc(OC[C@@]45CCCN4C[C@H](F)C5)nc4c(F)c(-c5ccc(F)c6sc(N)c(C#N)c56)c(Cl)cc34)CC2)n1 (some centres unmarked) please.
result: 29

From: patent US20260356856A1
